This section presents compounds with their documented IC50 values.
- Tested on: MIA PaCa-2
- METHOD_NOTES: Cytotoxicity against 2D culture of human MIAPaCa2 cells measured after 72 hrs by MTT assay
- Format: functional, cell-based
- TEST_SETTINGS: MIA PaCa-2, 72 h

{"COMPOUND": "COc1cc2c(c(OC)c1OC)-c1cc3cc(CO)oc3cc1C(O)CC2 (stereo not drawn)", "OPERATOR_SYMBOL": "=", "IC50 / nM": 16}
{"COMPOUND": "COc1cc2c(c(OC)c1OC)-c1ccc(OC)c(=O)cc1[C@@H](NC(C)=O)CC2", "OPERATOR_SYMBOL": "=", "IC50 / nM": 160}
{"COMPOUND": "COc1cc2c(c(OC)c1OC)-c1cc3cc(CCO)oc3cc1C(=O)CC2", "OPERATOR_SYMBOL": ">", "IC50 / nM": 400}
{"COMPOUND": "COc1cc2c(c(OC)c1OC)-c1cc3cc(CO)oc3cc1C(=O)CC2", "OPERATOR_SYMBOL": "=", "IC50 / nM": 64}
{"COMPOUND": "COc1cc2c(c(OC)c1OC)-c1cc3cc(COC(C)=O)oc3cc1C(=O)CC2", "OPERATOR_SYMBOL": "=", "IC50 / nM": 16}
{"COMPOUND": "COc1cc2c(c(OC)c1OC)-c1cc3cc(C(C)O)oc3cc1C(=O)CC2 (stereo not drawn)", "OPERATOR_SYMBOL": ">", "IC50 / nM": 100}
{"COMPOUND": "COc1cc2c(c(OC)c1OC)-c1cc3cc(C(C)O)oc3cc1C(O)CC2 (stereo not drawn)", "OPERATOR_SYMBOL": "=", "IC50 / nM": 64}
{"COMPOUND": "COc1cc2c(c(OC)c1OC)-c1cc3cc(CCO)oc3cc1C(O)CC2 (stereo not drawn)", "OPERATOR_SYMBOL": ">", "IC50 / nM": 400}
